Each entry below carries its reported TGI.
# Test system: OVCAR-5 ovarian
# experimental_protocol: NCI tumour cell line growth inhibition, 48 h

molecule: CCCCCCCCCCCC(=O)c1c(O)cccc1O
measured_on: OVCAR-5 ovarian
TGI: 28.5 µM
//
molecule: C[C@]12C3CC[C@@]4(CO)C[C@]3(CCC1[C@](C)(C(=O)O)CC[C@@H]2O)CC4=O (some centres undefined)
measured_on: OVCAR-5 ovarian
TGI: > 100 µM
//
molecule: COC(OC)C1OC(CO)C(n2cc(F)c(=O)[nH]c2=O)C1O (centres undefined)
measured_on: OVCAR-5 ovarian
TGI: > 100 µM
//
molecule: CCOC(=O)/C(C[C@H]1OC(C)(C)O[C@@H]1[C@H]1COC(C)(C)O1)=N/O
measured_on: OVCAR-5 ovarian
TGI: > 100 µM
//
molecule: CC(=O)/C=C/C1=C(c2cccs2)c2ccccc2CC1
measured_on: OVCAR-5 ovarian
TGI: > 100 µM
//
molecule: O=[N+]([O-])[O-].O=[N+]([O-])[O-].[Au].[Au].c1ccc([P-]c2ccccc2)cc1.c1ccc([P-]c2ccccc2)cc1
measured_on: OVCAR-5 ovarian
TGI: > 100 µM
//
molecule: CSCCC(NC(=O)OCc1ccccc1)P(=O)(O)c1ccccc1 (centres undefined)
measured_on: OVCAR-5 ovarian
TGI: > 100 µM
//
molecule: COC(=O)C1ON2C(C1C(=O)OC)C(C)(C)N(O)C2(C)C (centres undefined)
measured_on: OVCAR-5 ovarian
TGI: > 10 µM
//
molecule: O=C(Nc1ccc(Cl)cc1)c1cc(S(=O)(=O)Nc2nnc(-c3ccccc3)c(-c3ccccc3)n2)c(SCc2ccccc2)cc1Cl
measured_on: OVCAR-5 ovarian
TGI: > 58 µM

Provenance of the data: PubChem BioAssay (NCI)
